All figures here come from ChEMBL document CHEMBL2218924.

- MEASURED ON: Tyrosine-protein kinase Lck (Homo sapiens) (UniProt P06239)
- Sequence (P06239 2-509 limits assumed): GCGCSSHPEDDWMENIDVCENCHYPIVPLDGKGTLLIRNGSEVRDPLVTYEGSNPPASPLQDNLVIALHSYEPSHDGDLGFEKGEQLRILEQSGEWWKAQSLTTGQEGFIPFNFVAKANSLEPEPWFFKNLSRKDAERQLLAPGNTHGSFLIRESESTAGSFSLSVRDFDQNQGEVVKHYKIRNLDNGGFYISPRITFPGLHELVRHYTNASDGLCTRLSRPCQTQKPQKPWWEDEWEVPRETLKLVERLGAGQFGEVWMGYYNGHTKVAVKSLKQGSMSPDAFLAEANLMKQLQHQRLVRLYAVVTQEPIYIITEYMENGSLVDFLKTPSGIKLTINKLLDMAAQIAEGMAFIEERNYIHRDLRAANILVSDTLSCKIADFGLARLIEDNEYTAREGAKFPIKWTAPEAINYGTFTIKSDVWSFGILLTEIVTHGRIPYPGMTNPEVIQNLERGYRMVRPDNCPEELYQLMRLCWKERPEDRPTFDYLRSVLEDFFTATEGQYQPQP
- TEST PARAMETERS: at 10 µM
PROPERTY LABEL: residual activity (%)
The reply should contain only the number, in %.

Some solved cases for reference:
MOLECULE	residual activity [%]
COc1ccc2c(c1)c(C1=C(c3c[nH]c4ccccc34)C(=O)NC1=O)cn2CCCN(C)C	27
O=C(c1ccccc1)c1ccc(N2CCOCC2)cc1O	78
O=c1cc(N2CCOCC2)oc2c1ccc1ccccc12	88
Nc1ncnc2c1c(-c1ccc(Oc3ccccc3)cc1)cn2C1CCCC1	2
CSc1nc(-c2ccc(F)cc2)c(-c2ccnc(NC(C)c3ccccc3)c2)[nH]1 (stereo unspecified)	37

Could you now consider this next molecule?
Which residual activity value belongs to CC(C)(C)n1nc(Cc2cccc3ccccc23)c2c(N)ncnc21 ? 12

----------
- MEASURED ON: Ephrin type-A receptor 5 (Homo sapiens)
- TEST PARAMETERS: at 10 µM
Field: label. Allowed values: t (residual activity < 70%) or f (residual activity >= 70%).

QUERY SMILES	CAT
O=C(c1cc2cc(O)ccc2[nH]1)c1cc2cc(O)ccc2[nH]1	t
COc1cc2ncnc(Nc3cccc(Cl)c3)c2cc1OC	t
Oc1cccc(-c2nc(N3CCOCC3)c3oc4ncccc4c3n2)c1	f
CCOc1nc(NC(=O)Cc2cc(OC)ccc2OC)cc(N)c1C#N	f

Does the reported residual activity of the following compound sit strictly below 70%? O=C(CCCc1ccc(-c2ccccc2F)cc1)Nc1ccc(O)cc1 f

----------
- MEASURED ON: Cyclin-dependent kinase 1/cyclin B1 (Homo sapiens) (UniProt P06493+P14635)
- Sequence (P06493 whole entry, looked up): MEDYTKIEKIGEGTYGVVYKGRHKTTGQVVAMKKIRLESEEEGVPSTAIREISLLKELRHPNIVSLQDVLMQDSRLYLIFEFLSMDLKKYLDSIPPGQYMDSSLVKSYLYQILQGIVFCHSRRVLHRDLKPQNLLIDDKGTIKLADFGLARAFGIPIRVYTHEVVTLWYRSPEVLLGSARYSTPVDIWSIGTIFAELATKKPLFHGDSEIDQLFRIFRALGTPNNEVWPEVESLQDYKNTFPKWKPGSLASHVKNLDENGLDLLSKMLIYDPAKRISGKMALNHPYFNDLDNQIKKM
- Sequence (P14635 whole entry, looked up): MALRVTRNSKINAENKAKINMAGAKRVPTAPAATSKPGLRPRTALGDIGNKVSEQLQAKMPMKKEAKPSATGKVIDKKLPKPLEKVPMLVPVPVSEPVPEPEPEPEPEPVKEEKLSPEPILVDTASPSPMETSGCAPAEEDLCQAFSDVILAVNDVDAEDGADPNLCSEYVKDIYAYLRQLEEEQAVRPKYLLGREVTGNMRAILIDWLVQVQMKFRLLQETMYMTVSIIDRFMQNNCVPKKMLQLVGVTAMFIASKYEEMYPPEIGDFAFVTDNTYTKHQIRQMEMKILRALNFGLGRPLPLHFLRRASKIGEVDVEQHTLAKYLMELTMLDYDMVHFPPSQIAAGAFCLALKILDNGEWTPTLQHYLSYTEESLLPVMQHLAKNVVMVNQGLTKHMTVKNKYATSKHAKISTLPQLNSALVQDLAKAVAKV
- TEST PARAMETERS: at 10 µM
PROPERTY LABEL: residual activity (%)
Note: unit % is implicit; provide only the numeric part.

Solved entries:
QUERY SMILES	U	residual activity
O=C(O)/C=C/c1cc(Br)c(Br)c(Br)c1Br	%	56
CCCCc1c(-c2ccc(OC)cc2)[nH]c2nccnc12	%	26
c1ccc(-c2cnc(Nc3ccc(OCCN4CCCC4)cc3)s2)cc1	%	62
Fc1ccc(-c2nc3n(c2-c2ccncc2)CCS3)cc1	%	95
O=C(c1ccccc1)c1ccc(N2CCOCC2)cc1O	%	94

Shift focus to the following entry.
Recorded residual activity of Nc1ncnc2c1c(-c1ccc(Oc3ccccc3)cc1)cn2C1CCCC1 , please. 85

----------
- MEASURED ON: Serine/threonine-protein kinase 24 (Homo sapiens) (UniProt Q9Y6E0)
- Sequence (Q9Y6E0 whole entry, looked up): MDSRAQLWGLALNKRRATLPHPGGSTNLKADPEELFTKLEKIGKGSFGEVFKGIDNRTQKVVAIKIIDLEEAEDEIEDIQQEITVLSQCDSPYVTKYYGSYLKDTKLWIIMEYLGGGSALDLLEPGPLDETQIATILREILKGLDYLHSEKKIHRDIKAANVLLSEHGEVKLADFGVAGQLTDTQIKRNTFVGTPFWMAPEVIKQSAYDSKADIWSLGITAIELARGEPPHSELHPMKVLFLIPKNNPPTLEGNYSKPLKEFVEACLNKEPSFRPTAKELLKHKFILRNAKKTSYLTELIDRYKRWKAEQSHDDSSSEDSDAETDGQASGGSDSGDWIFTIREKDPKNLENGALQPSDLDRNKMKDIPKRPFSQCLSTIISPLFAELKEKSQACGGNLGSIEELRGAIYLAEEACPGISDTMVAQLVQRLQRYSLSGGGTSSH
- TEST PARAMETERS: at 10 µM
Lab note: anything with residual activity below 50% is marked T; values at 50% or higher are marked F.

Input O=C1NC(=O)C(c2cn(CCCO)c3ncccc23)=C1c1cnccn1 ; condition: residual activity strictly below 50%. Does it hold? F

Then this compound: COc1ccc(CNC(=O)Nc2ncc([N+](=O)[O-])s2)cc1 F

Same read-out for O=C1C(Cl)=C(N2C(=O)CCC2=O)C(=O)c2ccccc21 ? F

Now give it for O=C1Cc2c([nH]c3ccc([N+](=O)[O-])cc23)-c2ccccc2N1 too. T

Do the same for Nc1nc(Nc2ccc(S(N)(=O)=O)cc2)nn1C(=O)c1c(F)cccc1F please T

----------
- MEASURED ON: Inhibitor of nuclear factor kappa-B kinase subunit beta (Homo sapiens)
- TEST PARAMETERS: at 1 µM
// reported residual activity for each item listed
The answer is to be given in %; state only the numeric part.

Please review the entries below; each comes with its answer.
QUERY SMILES	U	residual activity
COc1cc2nccc(Oc3ccc(NC(=O)Nc4cc(C)on4)c(Cl)c3)c2cc1OC	%	104
Cn1c2ccccc2c2c3c(c4c5ccccc5n(CCC#N)c4c21)CNC3=O	%	72

Fill in the recorded residual activity for this molecule, with Inhibitor of nuclear factor kappa-B kinase subunit beta (Homo sapiens) as test system: O=S(=O)(NCCNC/C=C/c1ccc(Br)cc1)c1cccc2cnccc12 126

Item: O=c1cc(N2CCOCC2)oc2c1ccc1ccccc12 96

Another: c1ccc(-c2cnc(Nc3ccc(OCCN4CCCC4)cc3)s2)cc1 116
